# target_under_test: Telomerase reverse transcriptase (Homo sapiens) (UniProt O14746)
# Sequence (O14746 whole entry): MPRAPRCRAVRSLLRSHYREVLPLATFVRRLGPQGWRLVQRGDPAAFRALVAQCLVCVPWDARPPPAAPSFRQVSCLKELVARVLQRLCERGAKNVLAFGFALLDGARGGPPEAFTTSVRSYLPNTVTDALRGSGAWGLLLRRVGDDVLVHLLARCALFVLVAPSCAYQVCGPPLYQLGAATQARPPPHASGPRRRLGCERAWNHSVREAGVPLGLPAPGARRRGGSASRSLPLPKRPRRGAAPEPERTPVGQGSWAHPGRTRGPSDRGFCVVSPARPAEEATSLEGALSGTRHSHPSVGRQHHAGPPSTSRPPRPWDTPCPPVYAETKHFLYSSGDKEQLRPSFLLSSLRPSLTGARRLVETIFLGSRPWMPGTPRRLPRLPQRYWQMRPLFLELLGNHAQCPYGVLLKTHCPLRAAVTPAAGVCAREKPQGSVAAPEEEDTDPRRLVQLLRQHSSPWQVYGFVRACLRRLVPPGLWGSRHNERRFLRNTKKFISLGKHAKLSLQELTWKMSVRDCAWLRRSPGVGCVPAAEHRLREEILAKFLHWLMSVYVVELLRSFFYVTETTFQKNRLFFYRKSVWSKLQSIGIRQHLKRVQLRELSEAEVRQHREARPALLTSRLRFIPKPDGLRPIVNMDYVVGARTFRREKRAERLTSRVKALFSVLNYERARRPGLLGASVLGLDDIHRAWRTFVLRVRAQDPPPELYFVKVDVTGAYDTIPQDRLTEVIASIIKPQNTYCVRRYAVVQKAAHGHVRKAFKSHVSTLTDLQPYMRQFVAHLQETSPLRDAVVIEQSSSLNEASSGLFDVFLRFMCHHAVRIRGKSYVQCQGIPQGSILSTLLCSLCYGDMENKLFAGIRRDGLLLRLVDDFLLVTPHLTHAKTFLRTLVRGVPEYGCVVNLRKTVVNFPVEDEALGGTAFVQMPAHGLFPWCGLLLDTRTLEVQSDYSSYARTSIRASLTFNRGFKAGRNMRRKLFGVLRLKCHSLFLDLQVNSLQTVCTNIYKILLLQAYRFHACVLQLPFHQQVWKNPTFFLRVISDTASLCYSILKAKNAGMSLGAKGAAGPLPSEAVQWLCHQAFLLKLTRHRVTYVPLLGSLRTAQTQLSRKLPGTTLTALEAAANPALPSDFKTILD
# method_description: Inhibition of telomerase activity in human HeLa cell lysate at 6.25 uM in presence of [32P]-labeled template primer by TRAP assay
# Type: subcellular
Active and inactive are the calls of the source. The calls are words filed in the database; no cut-off is given here.
Please answer using one outcome listed in class 1 (active), class 0 (inactive)

Examples from the recorded data:
C[n+]1c(/C=C2\C=CN(CC(=O)NCCOCCN3CCCCC3)c3ccccc32)sc2ccccc21 class 1
C[n+]1c(/C=C2\C=CN(CC(=O)NCCCN)c3ccccc32)sc2ccccc21 class 0
C[n+]1c(/C=C2\C=CN(CC(=O)NCCN3CCCC3)c3ccccc32)sc2ccccc21 class 1
C[n+]1c(/C=C2\C=CN(CC(=O)NCCCNCCCN)c3ccccc32)sc2ccccc21 class 1
C[n+]1c(/C=C2\C=CN(CC(=O)NCCN)c3ccccc32)sc2ccccc21 class 0
C[n+]1c(/C=C2\C=CN(CC(=O)NCCOCCOCCOCCN)c3ccccc32)sc2ccccc21 class 0
C[n+]1c(/C=C2\C=CN(CC(=O)O)c3ccccc32)sc2ccccc21 class 0
C[n+]1c(/C=C2\C=CN(CC(=O)NCCNCCNCCN)c3ccccc32)sc2ccccc21 class 1

Alright, here's another molecule for you.
**Query** In this assay, the call recorded for C[n+]1c(/C=C2\C=CN(CC(=O)NCCCCCCN)c3ccccc32)sc2ccccc21 was what?
**Result** class 1

###

# target_under_test: Telomerase reverse transcriptase (Homo sapiens)
# method_description: Inhibition of telomerase activity in human HeLa cell lysate at 6.25 uM in presence of [32P]-labeled template primer by TRAP assay
# Type: subcellular
Activity calls are given as the source filed them. The calls are words filed in the database; no cut-off is given here.
Please answer using one outcome listed in 1 (active), 0 (inactive)

C[n+]1c(/C=C2\C=CN(CC(=O)NCCN3CCCCC3)c3ccccc32)sc2ccccc21 1
C[n+]1c(/C=C2\C=CN(CC(=O)NCCOCCN)c3ccccc32)sc2ccccc21 0
C[n+]1c(/C=C2\C=CN(CC(=O)NCCOCCN3CCCC3)c3ccccc32)sc2ccccc21 1

Alright, here's another compound for you.
**Query** In this assay, the call recorded for CN1/C(=C/c2cc[n+](C)c3ccccc23)Sc2ccccc21 was what?
**Result** 1

###

# target_under_test: Quadruplex DNA
# method_description: Binding affinity to human G-quadruplex G1 DNA assessed as equilibrium dissociation constant at 0.5 uM incubated for 30 mins under dark condition by fluorometric titration analysis
quantity_kind: Kd (nM)

C[n+]1c(/C=C2\C=CN(CC(=O)NCCOCCN3CCCC3)c3ccccc32)sc2ccccc21 1650
C[n+]1c(/C=C2\C=CN(CC(=O)NCCN3CCCCC3)c3ccccc32)sc2ccccc21 1130

a: CN1C=C/C(=C\c2sc3ccccc3[n+]2C)c2ccccc21
b: C[n+]1c(/C=C2\C=CN(CC(=O)NCCOCCN3CCCCC3)c3ccccc32)sc2ccccc21
**Query** Lab note: check whether a or b shows the higher recorded Kd. Your answer should be the label of the entry you select.
**Result** b

###

# target_under_test: dsDNA
# method_description: Binding affinity to 17 mer duplex D1 DNA (unknown origin) assessed as equilibrium dissociation constant at 0.5 uM incubated for 30 mins under dark condition by fluorometric titration analysis
quantity_kind: Kd (nM)

Study these solved cases before continuing.
C[n+]1c(/C=C2\C=CN(CC(=O)NCCN3CCCC3)c3ccccc32)sc2ccccc21 380
C[n+]1c(/C=C2\C=CN(CC(=O)NCCOCCN3CCCCC3)c3ccccc32)sc2ccccc21 710

P: C[n+]1c(/C=C2\C=CN(CC(=O)NCCOCCN3CCCC3)c3ccccc32)sc2ccccc21
Q: CN1C=C/C(=C\c2sc3ccccc3[n+]2C)c2ccccc21
R: C[n+]1c(/C=C2\C=CN(CC(=O)NCCN3CCCCC3)c3ccccc32)sc2ccccc21
**Query** Arrange the 3 compounds from largest to smallest Kd. Give your ranking as a list of the labels in the requested order.
**Result** P, Q, R

###

# Test system: Quadruplex DNA
# method_description: Binding affinity to G-quadruplex G1 DNA (unknown origin) assessed as melting temperature at compound to DNA ratio of 4:1 in presence of 150 mM Na+ by circular dichroism thermal denaturation analysis (reference value: 57.4 degC)
# Type: nucleic-acid assay
quantity_kind: Tm (°C)

C[n+]1c(/C=C2\C=CN(CC(=O)NCCN)c3ccccc32)sc2ccccc21 57.5
C[n+]1c(/C=C2\C=CN(CC(=O)NCCCCCCN)c3ccccc32)sc2ccccc21 60
C[n+]1c(/C=C2\C=CN(CC(=O)NCCN3CCCC3)c3ccccc32)sc2ccccc21 62.5
C[n+]1c(/C=C2\C=CN(CC(=O)NCCN3CCCCC3)c3ccccc32)sc2ccccc21 56
C[n+]1c(/C=C2\C=CN(CC(=O)NCCNCCNCCN)c3ccccc32)sc2ccccc21 58.5
CN1/C(=C/c2cc[n+](C)c3ccccc23)Sc2ccccc21 60
C[n+]1c(/C=C2\C=CN(CC(=O)NCCOCCOCCOCCN)c3ccccc32)sc2ccccc21 57
C[n+]1c(/C=C2\C=CN(CC(=O)NCCCNCCCN)c3ccccc32)sc2ccccc21 61.5
C[n+]1c(/C=C2\C=CN(CC(=O)NCCCNCCCCNCCCN)c3ccccc32)sc2ccccc21 65
C[n+]1c(/C=C2\C=CN(CC(=O)NCCOCCN3CCCC3)c3ccccc32)sc2ccccc21 60.5
C[n+]1c(/C=C2\C=CN(CC(=O)NCCOCCN)c3ccccc32)sc2ccccc21 56
C[n+]1c(/C=C2\C=CN(CC(=O)NCCCN)c3ccccc32)sc2ccccc21 56.5
C[n+]1c(/C=C2\C=CN(CC(=O)O)c3ccccc32)sc2ccccc21 57.1
C[n+]1c(/C=C2\C=CN(CC(=O)NCCOCCN3CCCCC3)c3ccccc32)sc2ccccc21 60.5
